# System: Saccharomyces cerevisiae
# protocol_text: protein stability index of tFT-peptide fusion (C-terminal peptide) (PSI (0-1 scale)); higher = more stable (slower turnover)
# reported_conditions: genetic background: wild type; temperature: 30 C
protein stability index vs 0.7: at or above is satisfied, below is not satisfied.

* CTAVGFISFWMA | not satisfied
* GPPPAWALCYPL | not satisfied
* SPVGCYAIIARM | not satisfied
* FGYCFYRFHLQR | not satisfied
* WWGFGRVCGGGV | satisfied

input: Given WHIEGFGQYYSL , state whether its protein stability index is at least 0.7.
output: satisfied

input: Please tell me: is the sequence RLFPSPIYLARF at or over 0.7 in terms of protein stability index?
output: not satisfied

input: Exam item: decide whether the reported protein stability index for KEEKRMKLKKLQ is at least 0.7.
output: not satisfied

input: Is protein stability index at least 0.7? Consider LFICETRLDSRY
output: satisfied

----------
# System: Saccharomyces cerevisiae
# protocol_text: protein stability index of tFT-peptide fusion (C-terminal peptide) (PSI (0-1 scale)); higher = more stable (slower turnover)
# reported_conditions: genetic background: wild type; temperature: 30 C
observation_type: protein stability index
Give the figure only, with no unit attached.

• GMTYWFCSFPFF = 0.686

input: Quick one: protein stability index for VVHSRSTPAHPH ?
output: 0.679

input: What does the data say about its protein stability index? Entry: LPRPPPPSPPPP
output: 0.7

input: Give its protein stability index value. Item: NWRCTLGWSWVR
output: 0.706

input: Could you tell me which protein stability index is on file for WVPISPFLTPSH ?
output: 0.716

input: Given the sequence CASPSPPPAPVL , what is its reported protein stability index?
output: 0.68

input: // protein stability index lookup, key: PPLPSPLCPQPP
output: 0.714

input: Recorded protein stability index of GAGAVRPPARAS , please.
output: 0.699

input: Entry under review: RGGGEGGKEDSQ . Reported protein stability index?
output: 0.682

input: Would you mind telling me what protein stability index value was observed for VAWCYCSGDTGV ?
output: 0.7

----------
# Test system: Saccharomyces cerevisiae
# protocol_text: protein stability index of tFT-peptide fusion (C-terminal peptide) (PSI (0-1 scale)); higher = more stable (slower turnover)
# reported_conditions: genetic background: wild type; temperature: 30 C
Reported protein stability index values for the following sequences.
Could you respond with only the numeric value?

Solved entries:
• LPPPPRPALSHR = 0.72
• LPPRSPSPHPHR = 0.68
• EIVTQQKIMDKK = 0.711

input: Return protein stability index measured with Saccharomyces cerevisiae given this sequence: GCFGLLVSSLFS
output: 0.711

input: Value wanted: protein stability index (Saccharomyces cerevisiae) of entry PSAGSPAPLLHP
output: 0.705

input: Request - read-out protein stability index | tested on Saccharomyces cerevisiae | sequence PPAPRPRSPSPL
output: 0.719

----------
# Tested on: Saccharomyces cerevisiae;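 further: PSI is a weighted mean of sequencing reads over stability bins, variants kept only with over 10 reads, mCherry proximal and sfGFP distal, peptide attached via GGGS linker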
# protocol_text: protein stability index of tFT-peptide fusion (C-terminal peptide) (PSI (0-1 scale)); higher = more stable (slower turnover)
# reported_conditions: genetic background: wild type; temperature: 30 C
Label 1 when protein stability index is at or above 0.7; otherwise label 0.

Sample answers from the record:
* PFSLIFSFFSEV | 1
* CVYGILLLVDVR | 0
* IQKIKYKRKYIK | 1
* DRLGADCPLLSG | 1
* LPPPRSPPLPRL | 1
* RDCSGGRRGLER | 0

input: Would you say TPAMPRNPTDDS shows protein stability index at minimum 0.7?
output: 0

input: Could you please find out whether VFQVFSVGTCSG has protein stability index that meets 0.7 or exceeds it?
output: 0
